Listed here: items and their measured IC50 GM-CSF, TF-1 proliferation.
Target: T1, human CD131 (human, UniProt P32927 17-897)
T1 sequence: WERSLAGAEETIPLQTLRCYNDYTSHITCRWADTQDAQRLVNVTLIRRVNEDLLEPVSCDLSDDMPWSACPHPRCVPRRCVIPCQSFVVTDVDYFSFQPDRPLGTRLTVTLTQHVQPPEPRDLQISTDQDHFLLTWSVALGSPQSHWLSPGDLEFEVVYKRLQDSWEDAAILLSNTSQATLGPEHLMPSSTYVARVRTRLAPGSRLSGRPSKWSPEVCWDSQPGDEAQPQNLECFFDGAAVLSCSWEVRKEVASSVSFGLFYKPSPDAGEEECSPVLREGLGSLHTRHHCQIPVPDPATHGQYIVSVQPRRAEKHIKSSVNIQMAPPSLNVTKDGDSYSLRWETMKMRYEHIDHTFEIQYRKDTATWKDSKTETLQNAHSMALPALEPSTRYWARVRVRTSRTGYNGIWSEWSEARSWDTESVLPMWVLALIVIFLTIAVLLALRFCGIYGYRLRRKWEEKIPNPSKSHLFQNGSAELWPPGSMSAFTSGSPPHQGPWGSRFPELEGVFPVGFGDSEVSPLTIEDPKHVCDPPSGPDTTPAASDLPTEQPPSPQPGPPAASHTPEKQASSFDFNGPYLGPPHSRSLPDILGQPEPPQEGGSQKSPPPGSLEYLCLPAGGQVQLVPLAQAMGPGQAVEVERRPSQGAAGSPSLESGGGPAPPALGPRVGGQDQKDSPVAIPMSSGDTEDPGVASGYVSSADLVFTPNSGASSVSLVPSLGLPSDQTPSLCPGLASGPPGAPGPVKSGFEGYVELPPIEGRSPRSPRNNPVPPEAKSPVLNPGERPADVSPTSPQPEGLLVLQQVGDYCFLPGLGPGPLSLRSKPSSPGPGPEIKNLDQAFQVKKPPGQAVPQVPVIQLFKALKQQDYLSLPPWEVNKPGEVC
Experiment: cell-based or functional assay
Numeric answer only, unit nM assumed.

Study these solved cases before continuing.
Give its IC50 GM-CSF, TF-1 proliferation value. Item: 9A2-VR3 (antibody, V domains shown) VH: EVQLLESGGGLVQPGGSLRLSCAASGFTFSHYHMLWVRQAPGKGLEWVSSIRSSGGFTYYADSVKGRFTISRDNSKNTLYLQMNSLRAEDTAVYYCARFYDSFFDIWGQGTMVTVSS VL: DIQMTQSPSSVSASVGDRVTITCRASQGLRPFVNWYQQKPGKAPKLLIYAASSLQSGVPSRFSGSGSGTDFTLTISSLQPEDFATYYCQQANSFPITFGQGTRLEIKR
101

Suppose we examine the binder 9A2-VR37 (antibody, V domains shown) VH: EVQLLESGGGLVQPGGSLRLSCAASGFTFSHYHMLWVRQAPGKGLEWVSSISGSMWSTYYADSVKGRFTISRDNSKNTLYLQMNSLRAEDTAVYYCARFYDSFFDIWGQGTMVTVSS VL: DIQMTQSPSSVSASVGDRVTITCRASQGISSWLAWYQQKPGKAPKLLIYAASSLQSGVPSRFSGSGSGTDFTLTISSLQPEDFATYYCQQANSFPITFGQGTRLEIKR ; what IC50 GM-CSF, TF-1 proliferation value has been reported?
48.1

Now examine the next entry.
What measured IC50 GM-CSF, TF-1 proliferation goes with 9A2-VR39 (antibody, V domains shown) VH: EVQLLESGGGLVQPGGSLRLSCAASGFTFSHYHMLWVRQAPGKGLEWVSSINGRGRVTYYADSVKGRFTISRDNSKNTLYLQMNSLRAEDTAVYYCARFYDSFFDIWGQGTMVTVSS VL: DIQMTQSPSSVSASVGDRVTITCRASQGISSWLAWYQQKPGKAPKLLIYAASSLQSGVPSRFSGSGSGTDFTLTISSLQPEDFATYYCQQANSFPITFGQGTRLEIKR ?
0.88
